# Assay Target: T1, Bbc1, P47068
# T1 sequence (P47068 1-78, looked up): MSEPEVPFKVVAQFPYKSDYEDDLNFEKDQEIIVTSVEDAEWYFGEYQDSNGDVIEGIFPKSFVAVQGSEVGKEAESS
# Assay: SPOT array
# Measurement Parameters: median of control spots 796
# label = bin(measured SPOT intensity), where bins are bottom range (below 8), center range (8 to below 20), top range (20 or more)

GSKSGPPPRPKKPST
center range
VQKRKLPLPGSIASA
top range
LRWRHKFFLPAIAAI
center range
IHTRRPSSTSQYLIR
bottom range
KMSRSPPRPPSLKII
top range

Attention now shifts to the item below.
Please report the category associated with NFLRLLIGLPSQNEL , nothing else.
top range
